- target: T1, Interferon type I receptors on HeLa cells (UniProt P17181 28-557; P48551 27-515, limits assumed)
- T1 sequence (looked up) 1: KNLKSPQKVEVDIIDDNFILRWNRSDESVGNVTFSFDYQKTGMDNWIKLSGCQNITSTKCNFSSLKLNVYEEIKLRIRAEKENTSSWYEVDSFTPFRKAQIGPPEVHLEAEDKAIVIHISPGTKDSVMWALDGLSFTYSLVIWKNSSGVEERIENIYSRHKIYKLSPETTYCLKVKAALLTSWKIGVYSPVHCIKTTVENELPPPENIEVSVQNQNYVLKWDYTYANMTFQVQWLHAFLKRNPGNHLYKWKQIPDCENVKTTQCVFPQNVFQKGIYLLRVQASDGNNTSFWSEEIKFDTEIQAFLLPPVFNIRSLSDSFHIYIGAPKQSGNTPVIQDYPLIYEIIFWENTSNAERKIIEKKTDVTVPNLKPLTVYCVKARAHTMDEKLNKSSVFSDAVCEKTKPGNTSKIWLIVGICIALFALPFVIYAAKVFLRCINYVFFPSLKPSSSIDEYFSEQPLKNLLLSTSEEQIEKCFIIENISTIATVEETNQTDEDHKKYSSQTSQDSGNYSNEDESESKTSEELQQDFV
- T1 sequence (looked up) 2: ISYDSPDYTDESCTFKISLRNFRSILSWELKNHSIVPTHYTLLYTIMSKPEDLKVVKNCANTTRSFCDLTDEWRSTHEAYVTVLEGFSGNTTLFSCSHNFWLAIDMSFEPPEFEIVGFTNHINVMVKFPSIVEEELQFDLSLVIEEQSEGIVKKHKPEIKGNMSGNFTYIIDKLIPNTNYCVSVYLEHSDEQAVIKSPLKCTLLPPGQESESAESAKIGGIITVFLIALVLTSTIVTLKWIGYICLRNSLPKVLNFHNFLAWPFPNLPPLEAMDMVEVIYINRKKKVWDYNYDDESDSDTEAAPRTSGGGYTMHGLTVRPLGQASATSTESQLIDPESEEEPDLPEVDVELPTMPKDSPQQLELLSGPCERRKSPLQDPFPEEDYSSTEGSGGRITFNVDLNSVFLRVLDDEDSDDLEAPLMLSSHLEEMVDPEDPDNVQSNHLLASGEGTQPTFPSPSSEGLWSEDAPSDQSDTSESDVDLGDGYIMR
- test.protocol: cell-based or functional assay
quantity.kind: INF-β activity, culture medium of transfected CHO K1 cells

Examples from the recorded data:
-- ask Report INF-β activity, culture medium of transfected CHO K1 cells for [Q49N+Q51T]hINF-β variant (ligand, introduced N-linked glycosylation site at position 49 (used only about 60%), besides the natural site at N80 (expressed in CHO K1 cells)) MSYNLLGFLQRSSNFQCQKLLWQLNGRLEYCLKDRMNFDIPEEIKQLQNFTKEDAALTIYEMLQNIFAIFRQDSSSTGWNETIVENLLANVYHQINHLKTVLEEKLEKEDFTRGKLMSSLHLKRYYGRILHYLKAKEYSHCAWTIVRVEILRNFYFINRLTGYLRN please.
-- reply 135000 IU/ml

-- ask Please do the same for [Q48F, Q49N, Q51T]hINF-β (ligand, introduced N-linked glycosylation site at position 49, besides the natural site at N80 (expressed in CHO K1 cells)) MSYNLLGFLQRSSNFQCQKLLWQLNGRLEYCLKDRMNFDIPEEIKQLFNFTKEDAALTIYEMLQNIFAIFRQDSSSTGWNETIVENLLANVYHQINHLKTVLEEKLEKEDFTRGKLMSSLHLKRYYGRILHYLKAKEYSHCAWTIVRVEILRNFYFINRLTGYLRN as well.
-- reply 53100 IU/ml

-- ask Same thing, different binder: [Q48W, Q49N, Q51T]hINF-β (ligand, introduced N-linked glycosylation site at position 49, besides the natural site at N80 (expressed in CHO K1 cells)) MSYNLLGFLQRSSNFQCQKLLWQLNGRLEYCLKDRMNFDIPEEIKQLWNFTKEDAALTIYEMLQNIFAIFRQDSSSTGWNETIVENLLANVYHQINHLKTVLEEKLEKEDFTRGKLMSSLHLKRYYGRILHYLKAKEYSHCAWTIVRVEILRNFYFINRLTGYLRN
-- reply 45100 IU/ml

Alright, here's another binder for you.
-- ask Need INF-β activity, culture medium of transfected CHO K1 cells of [Q48V, Q49N, Q51T]hINF-β (ligand, introduced N-linked glycosylation site at position 49, besides the natural site at N80 (expressed in CHO K1 cells)) MSYNLLGFLQRSSNFQCQKLLWQLNGRLEYCLKDRMNFDIPEEIKQLVNFTKEDAALTIYEMLQNIFAIFRQDSSSTGWNETIVENLLANVYHQINHLKTVLEEKLEKEDFTRGKLMSSLHLKRYYGRILHYLKAKEYSHCAWTIVRVEILRNFYFINRLTGYLRN , thanks.
-- reply 65900 IU/ml
